Where do these numbers come from? They come from ChEMBL document CHEMBL1154258.

# System under test: UniProt P29275
# Sequence (P29275 whole entry): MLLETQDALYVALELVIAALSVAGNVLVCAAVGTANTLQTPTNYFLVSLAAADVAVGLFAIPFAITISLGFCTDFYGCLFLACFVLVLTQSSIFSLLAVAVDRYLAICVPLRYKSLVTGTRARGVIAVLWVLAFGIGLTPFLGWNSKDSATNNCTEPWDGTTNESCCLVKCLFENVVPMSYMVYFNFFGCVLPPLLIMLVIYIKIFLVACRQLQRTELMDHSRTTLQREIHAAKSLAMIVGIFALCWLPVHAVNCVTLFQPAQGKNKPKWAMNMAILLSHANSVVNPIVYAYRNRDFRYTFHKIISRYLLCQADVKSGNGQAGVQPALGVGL
# Test protocol: Antagonist activity at human adenosine A2B receptor expressed in CHOK1 cells assessed as inhibition of calcium mobilization by FLIPR assay
pIC50: −log10 of the molar value.
Attribute measured: pIC50

Some solved cases for reference:
# input Look up pIC50 for this molecule: CC(Nc1nc(C(=O)N2CCCC2)c2sccc2n1)c1cccnc1 (racemic)
# output 7.89

# input Try the molecule O=C(c1cccnc1)c1nc(NCc2cccnc2)nc2ccsc12
# output 6.96

[P] Cc1ccc(C(=O)c2nc(N)nc3ccsc23)s1
[Q] O=C(c1cccs1)c1nc(NCc2cccnc2)nc2ccsc12
# input Between P and Q , which one has the lower reported pIC50 value? Answer by quoting the chosen item's label.
# output P
(P: 6.12, Q: 7.74)
